Target: bovine serum albumin (BSA) (Bos taurus, UniProt P02769)
Sequence (P02769 25-607): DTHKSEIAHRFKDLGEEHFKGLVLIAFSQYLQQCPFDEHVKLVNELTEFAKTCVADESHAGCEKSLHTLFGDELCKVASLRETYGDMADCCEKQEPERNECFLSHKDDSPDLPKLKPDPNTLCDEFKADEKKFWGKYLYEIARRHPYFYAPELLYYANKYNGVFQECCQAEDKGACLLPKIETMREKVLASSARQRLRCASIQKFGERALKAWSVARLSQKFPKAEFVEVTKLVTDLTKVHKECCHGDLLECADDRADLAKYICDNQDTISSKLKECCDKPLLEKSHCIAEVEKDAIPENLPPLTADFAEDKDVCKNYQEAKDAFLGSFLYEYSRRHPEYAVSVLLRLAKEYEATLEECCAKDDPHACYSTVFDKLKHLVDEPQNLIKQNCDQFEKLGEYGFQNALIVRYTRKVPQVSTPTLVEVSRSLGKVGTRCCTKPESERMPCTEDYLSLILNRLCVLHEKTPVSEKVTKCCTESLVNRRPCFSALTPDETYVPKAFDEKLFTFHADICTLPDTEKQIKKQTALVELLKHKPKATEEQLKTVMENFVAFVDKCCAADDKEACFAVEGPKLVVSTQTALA
Test: Albumin binding by absorption spectroscopy titration
readout name: Protein-Complex Kb (M^−1) × 10^4

Value of measured Protein-Complex Kb (M^−1) × 10^4 for the entry Clc1ccc(N=Cc2ccc3ccccc3n2)cc1.Clc1ccc(N=Cc2ccc3ccccc3n2)cc1.O=[N+]([O-])[O-].[Ag+] [Complex Q3, [Ag(L3)2]NO3] : 5.11 (M^−1) × 10^4

Item: Cc1ccc(N=Cc2ccc3ccccc3n2)cc1.Cc1ccc(N=Cc2ccc3ccccc3n2)cc1.O=S(=O)([O-])C(F)(F)F.[Ag+] [Complex Q14, [Ag(L4)2]CF3SO3] | Protein-Complex Kb (M^−1) × 10^4: 7.50 (M^−1) × 10^4

The compound listed as C(=NCc1cccs1)c1ccc2ccccc2n1.C(=NCc1cccs1)c1ccc2ccccc2n1.[Ag+].[O-][Cl+3]([O-])([O-])[O-] [Complex Q10, [Ag(L5)2]ClO4] shows Protein-Complex Kb (M^−1) × 10^4 equal to 8.01 (M^−1) × 10^4

Per the records, this compound ( Clc1ccc(N=Cc2ccc3ccccc3n2)cc1.Clc1ccc(N=Cc2ccc3ccccc3n2)cc1.O=S(=O)([O-])C(F)(F)F.[Ag+] [Complex Q13, [Ag(L3)2]CF3SO3] ) has Protein-Complex Kb (M^−1) × 10^4 equal to 2.89 (M^−1) × 10^4

According to the records, this compound Clc1ccc(N=Cc2ccc3ccccc3n2)cc1.Clc1ccc(N=Cc2ccc3ccccc3n2)cc1.[Ag+].[O-][Cl+3]([O-])([O-])[O-] [Complex Q8, [Ag(L3)2]ClO4] displays Protein-Complex Kb (M^−1) × 10^4 of 9.48 (M^−1) × 10^4

Looking up C(=NCc1cccs1)c1ccc2ccccc2n1.C(=NCc1cccs1)c1ccc2ccccc2n1.O=[N+]([O-])[O-].[Ag+] [Complex Q5, [Ag(L5)2]NO3] , I see its Protein-Complex Kb (M^−1) × 10^4 listed as 5.95 (M^−1) × 10^4

Short answer for O=S(=O)([O-])C(F)(F)F.[Ag+].c1ccc2nc(-c3nc4ccccc4s3)ccc2c1.c1ccc2nc(-c3nc4ccccc4s3)ccc2c1 [Complex Q12, [Ag(L2)2]CF3SO3] : Protein-Complex Kb (M^−1) × 10^4 was 20.7 (M^−1) × 10^4

Protein-Complex Kb (M^−1) × 10^4 recorded for this compound, O=[N+]([O-])[O-].[Ag+].c1ccc2nc(-c3nc4ccccc4s3)ccc2c1.c1ccc2nc(-c3nc4ccccc4s3)ccc2c1 [Complex Q2, [Ag(L2)2]NO3] , is 7.97 (M^−1) × 10^4

Entry C(=NCc1cccs1)c1ccc2ccccc2n1.C(=NCc1cccs1)c1ccc2ccccc2n1.O=S(=O)([O-])C(F)(F)F.[Ag+] [Complex Q15, [Ag(L5)2]CF3SO3] — recorded Protein-Complex Kb (M^−1) × 10^4 = 13.1 (M^−1) × 10^4

The compound Cc1ccc(N=Cc2ccc3ccccc3n2)cc1.Cc1ccc(N=Cc2ccc3ccccc3n2)cc1.O=[N+]([O-])[O-].[Ag+] [Complex Q4, [Ag(L4)2]NO3] showed Protein-Complex Kb (M^−1) × 10^4 equal to 10.3 (M^−1) × 10^4

Form: compound = Cc1ccc(N=Cc2ccc3ccccc3n2)cc1.Cc1ccc(N=Cc2ccc3ccccc3n2)cc1.[Ag+].[O-][Cl+3]([O-])([O-])[O-] [Complex Q9, [Ag(L4)2]ClO4] ; Protein-Complex Kb (M^−1) × 10^4 = 5.43 (M^−1) × 10^4

---

Tested on: Staphylococcus aureus ATCC 700699 (methicillin-resistant)
Test: Minimum inhibitory concentration (MIC), spotting on Müeller–Hinton agar
Type: cell-based
Conditions: Gram + Ve; methicillin-resistant S. aureus; 37 °C, 18 h
readout name: Minimum inhibitory concentration, MRSA (µg/mL)
Hi! Could you send only the number? It should be in µg/mL, unit omitted.

Measured Minimum inhibitory concentration, MRSA (Staphylococcus aureus ATCC 700699 (methicillin-resistant)), entry [Ag+].[O-][Cl+3]([O-])([O-])[O-].c1ccc2nc(-c3nc4ccccc4s3)ccc2c1.c1ccc2nc(-c3nc4ccccc4s3)ccc2c1 [Complex Q7, [Ag(L2)2]ClO4] : 50

Observed Minimum inhibitory concentration, MRSA on Staphylococcus aureus ATCC 700699 (methicillin-resistant), entry Cc1ccc(N=Cc2ccc3ccccc3n2)cc1.Cc1ccc(N=Cc2ccc3ccccc3n2)cc1.[Ag+].[O-][Cl+3]([O-])([O-])[O-] [Complex Q9, [Ag(L4)2]ClO4] , equals 1000

Minimum inhibitory concentration, MRSA on Staphylococcus aureus ATCC 700699 (methicillin-resistant) for C(=NCc1cccs1)c1ccc2ccccc2n1.C(=NCc1cccs1)c1ccc2ccccc2n1.[Ag+].[O-][Cl+3]([O-])([O-])[O-] [Complex Q10, [Ag(L5)2]ClO4] is 1000

Lab entry: Staphylococcus aureus ATCC 700699 (methicillin-resistant) assay, compound O=[N+]([O-])[O-].[Ag+] [AgNO3, silver nitrate, reference compound] , Minimum inhibitory concentration, MRSA = 0.2

The compound Clc1ccc(N=Cc2ccc3ccccc3n2)cc1.Clc1ccc(N=Cc2ccc3ccccc3n2)cc1.O=S(=O)([O-])C(F)(F)F.[Ag+] [Complex Q13, [Ag(L3)2]CF3SO3] , when measured on Staphylococcus aureus ATCC 700699 (methicillin-resistant), yielded Minimum inhibitory concentration, MRSA of 50

Value (Minimum inhibitory concentration, MRSA, Staphylococcus aureus ATCC 700699 (methicillin-resistant)) for record [Ag+].[O-][Cl+3]([O-])([O-])[O-] [AgClO4, silver perchlorate, reference compound] = 6.25

---

What CT-DNA-EB-Complex Ksv (M^−1) × 10^4 was measured for each of the following?
Test system: CT-DNA-EB adduct
Assay: Fluorescence competitive displacement of ethidium bromide from CT-DNA
Type: binding, calf
Conditions: Stern–Volmer quenching constant, EB displacement, 25 °C

Form: compound = Cc1ccc(N=Cc2ccc3ccccc3n2)cc1.Cc1ccc(N=Cc2ccc3ccccc3n2)cc1.[Ag+].[O-][Cl+3]([O-])([O-])[O-] [Complex Q9, [Ag(L4)2]ClO4] ; CT-DNA-EB-Complex Ksv (M^−1) × 10^4 = 2.49 (M^−1) × 10^4

Lab book: CT-DNA-EB-Complex Ksv (M^−1) × 10^4 of [Ag+].[O-][Cl+3]([O-])([O-])[O-] [AgClO4, silver perchlorate, reference compound] noted as 3.31 (M^−1) × 10^4

Looking up Cc1ccc(N=Cc2ccc3ccccc3n2)cc1.Cc1ccc(N=Cc2ccc3ccccc3n2)cc1.O=S(=O)([O-])C(F)(F)F.[Ag+] [Complex Q14, [Ag(L4)2]CF3SO3] , I found its CT-DNA-EB-Complex Ksv (M^−1) × 10^4 recorded as 2.98 (M^−1) × 10^4

According to the records, this compound C(=NCc1cccs1)c1ccc2ccccc2n1.C(=NCc1cccs1)c1ccc2ccccc2n1.O=[N+]([O-])[O-].[Ag+] [Complex Q5, [Ag(L5)2]NO3] displays CT-DNA-EB-Complex Ksv (M^−1) × 10^4 of 2.31 (M^−1) × 10^4

GET /value?item= Clc1ccc(N=Cc2ccc3ccccc3n2)cc1.Clc1ccc(N=Cc2ccc3ccccc3n2)cc1.O=[N+]([O-])[O-].[Ag+] [Complex Q3, [Ag(L3)2]NO3] &field=CT-DNA-EB-Complex Ksv (M^−1) × 10^4 returns 3.93 (M^−1) × 10^4

C(=NCc1cccs1)c1ccc2ccccc2n1.C(=NCc1cccs1)c1ccc2ccccc2n1.[Ag+].[O-][Cl+3]([O-])([O-])[O-] [Complex Q10, [Ag(L5)2]ClO4] yielded CT-DNA-EB-Complex Ksv (M^−1) × 10^4 of 2.98 (M^−1) × 10^4

---

Tested on: CT-DNA-EB adduct
Assay: Fluorescence competitive displacement of ethidium bromide from CT-DNA
Type: binding, calf
Details: Stern–Volmer quenching constant, EB displacement, 25 °C
Please respond with reported CT-DNA-EB-Complex Ksv (M^−1) × 10^4 for every item in the list.

Measured CT-DNA-EB-Complex Ksv (M^−1) × 10^4 of O=S(=O)([O-])C(F)(F)F.[Ag+] [AgCF3SO3, silver trifluoromethanesulfonate, reference compound] : 3.01 (M^−1) × 10^4

CT-DNA-EB-Complex Ksv (M^−1) × 10^4 reported for this molecule O=[N+]([O-])[O-].[Ag+].c1ccc2nc(-c3nc4ccccc4s3)ccc2c1.c1ccc2nc(-c3nc4ccccc4s3)ccc2c1 [Complex Q2, [Ag(L2)2]NO3] : 2.68 (M^−1) × 10^4

Short answer for [Ag+].[O-][Cl+3]([O-])([O-])[O-].c1ccc2nc(-c3nc4ccccc4s3)ccc2c1.c1ccc2nc(-c3nc4ccccc4s3)ccc2c1 [Complex Q7, [Ag(L2)2]ClO4] : CT-DNA-EB-Complex Ksv (M^−1) × 10^4 was 3.96 (M^−1) × 10^4

Kindly note the recorded CT-DNA-EB-Complex Ksv (M^−1) × 10^4 for C(=NCc1cccs1)c1ccc2ccccc2n1.C(=NCc1cccs1)c1ccc2ccccc2n1.O=S(=O)([O-])C(F)(F)F.[Ag+] [Complex Q15, [Ag(L5)2]CF3SO3] , which is 2.48 (M^−1) × 10^4

get_value(item= O=[N+]([O-])[O-].[Ag+] [AgNO3, silver nitrate, reference compound] , readout=CT-DNA-EB-Complex Ksv (M^−1) × 10^4) returns 3.12 (M^−1) × 10^4

Lab book: CT-DNA-EB-Complex Ksv (M^−1) × 10^4 of Clc1ccc(N=Cc2ccc3ccccc3n2)cc1.Clc1ccc(N=Cc2ccc3ccccc3n2)cc1.O=S(=O)([O-])C(F)(F)F.[Ag+] [Complex Q13, [Ag(L3)2]CF3SO3] noted as 3.33 (M^−1) × 10^4

Source: paper PMC7956476
